Assay: PK of compound of Formula (Ia) after single subcutaneous dose of solution formulations in Wistar Han rats
Type: in vivo
Conditions: male, Wistar Han, rat, plasma, sc, 50 mg/kg, Wistar Han rats, SC 50 mg/kg, 400 mg/mL solution AA (6.25% poloxamer 188), 72.0 h, animals #1-#4
REPORTED_ENDPOINT: concentration at 72 h (nM)
Value expressed in nM; do not type the unit.

Lookup: Please give measured concentration at 72 h of the following entry: `CC(C)(C#Cc1ccc(-c2ccc(Cl)c3c(NS(C)(=O)=O)nn(CC(F)(F)F)c23)c([C@H](Cc2cc(F)cc(F)c2)NC(=O)Cn2nc(C(F)(F)F)c3c2C(F)(F)[C@@H]2C[C@H]32)n1)S(C)(=O)=O`
Found: 231
